compounds and their reported EC50
- System: HIV-1 (IIIB)
- protocolDetails: microbe, parasite or virus in culture
- Type: cell-based
- conditionContext: Human immunodeficiency virus 1, IIIB, MT4, 120 h, HIV-1 (IIIB) in MT-4 cells, 5 days incubation, Cell Titer Glo; read-out: MT4 EC50
// units = nM; emit number, no label

| compound | tgt | unitTag | observedResult |
| --- | --- | --- | --- |
| C[C@H]1CC[C@]2(CC(=O)N(Cc3ccc(C#N)cc3)O2)[C@H]2CN1C(=O)c1c(O)c(=O)c(C(=O)NCc3c(F)cc(F)cc3F)cn12 | HIV-1 (IIIB) | nM | 2.6 |
| C[C@H]1CC[C@]2(CC(OCC(F)F)=NO2)[C@H]2CN1C(=O)c1c(O)c(=O)c(C(=O)NCc3ccc(F)cc3F)cn12 | HIV-1 (IIIB) | nM | 1.8 |

Query string: Which measured EC50 value corresponds to "C[C@H]1CC[C@]2(CC(c3ccccc3)=NO2)[C@H]2CN1C(=O)c1c(O)c(=O)c(C(=O)NCc3ccc(F)cc3F)cn12" ?
Result string: 1.8

Query string: Now give it for "C[C@H]1CC[C@]2(CC(=O)N(Cc3cccc4ccccc34)O2)[C@H]2CN1C(=O)c1c(O)c(=O)c(C(=O)NCc3c(F)cc(F)cc3F)cn12" too.
Result string: 0.9

###

- System: pLAI reporter virus
- protocolDetails: microbe, parasite or virus in culture
- Assay type: cell-based, HIV
- conditionContext: Human immunodeficiency virus 1, MT4, 72 h, read-out: RLUC CCM EC50
attributeMeasured: EC50 (nM)
// units = nM; emit number, no label

| compoundSmiles | tgt | unitTag | EC50 |
| --- | --- | --- | --- |
| CCN1C[C@@]2(CC[C@H](C)N3C[C@H]2n2cc(C(=O)NCc4c(F)cc(F)cc4F)c(=O)c(O)c2C3=O)OC1=O | pLAI reporter virus | nM | 11.1 |

Query string: Which measured EC50 value corresponds to "C[C@H]1CC[C@]2(CC(C#N)=NO2)[C@H]2CN1C(=O)c1c(O)c(=O)c(C(=O)NCc3ccc(F)cc3F)cn12" ?
Result string: 157

Query string: Now give it for "CC1=NO[C@@]2(CC[C@H](CF)N3C[C@H]2n2cc(C(=O)NCc4ccc(F)cc4F)c(=O)c(O)c2C3=O)C1" too.
Result string: 0.5

Query string: Now give it for "C[C@H]1CC[C@]2(CC(c3ccccc3)=NO2)[C@H]2CN1C(=O)c1c(O)c(=O)c(C(=O)NCc3ccc(F)cc3F)cn12" too.
Result string: 1.7

Query string: Now give it for "C[C@H]1CC[C@]2(CC(F)=NO2)[C@H]2CN1C(=O)c1c(O)c(=O)c(C(=O)NCc3c(F)cc(F)cc3F)cn12" too.
Result string: 1.3

Query string: Now give it for "CC1=NO[C@@]2(CC[C@H](C)N3C[C@H]2n2cc(C(=O)NCc4c(F)cc(F)cc4F)c(=O)c(O)c2C3=O)O1" too.
Result string: 0.2

Query string: Now give it for "C[C@H]1CC[C@]2(CC(=O)N(C)C2)[C@H]2CN1C(=O)c1c(O)c(=O)c(C(=O)NCc3c(F)cc(F)cc3F)cn12" too.
Result string: 1.9

Query string: Now give it for "C[C@H]1CC[C@@]2(CC(C#CC(C)(C)S(C)(=O)=O)=NO2)[C@H]2CN1C(=O)c1c(O)c(=O)c(C(=O)NCc3c(F)cc(F)cc3F)cn12" too.
Result string: 15.7

Query string: Now give it for "C[C@H]1CC[C@@]2(ON=C(CF)[C@@H]2O)[C@H]2CN1C(=O)c1c(O)c(=O)c(C(=O)NCc3ccc(F)cc3F)cn12" too.
Result string: 0.4

Query string: Now give it for "CNC1=NO[C@@]2(CC[C@H](C)N3C[C@H]2n2cc(C(=O)NCc4c(F)cc(F)cc4F)c(=O)c(O)c2C3=O)C1" too.
Result string: 0.3

Query string: Now give it for "C[C@H]1CC[C@]2(CC(=O)NO2)[C@H]2CN1C(=O)c1c(O)c(=O)c(C(=O)NCc3c(F)cc(F)cc3F)cn12" too.
Result string: 34

Query string: Now give it for "C[C@H]1CC[C@]2(CC=NO2)[C@H]2CN1C(=O)c1c(O)c(=O)c(C(=O)NCc3c(F)cc(F)cc3F)cn12" too.
Result string: 0.3

Query string: Now give it for "CC1=NO[C@]2(CC[C@H](C)N3C[C@H]2n2cc(C(=O)NCc4ccc(F)cc4F)c(=O)c(O)c2C3=O)C1" too.
Result string: 2.6

###

compounds and their reported EC50
- System: HIV-1 (IIIB)
- protocolDetails: microbe, parasite or virus in culture
- Assay type: cell-based
- conditionContext: Human immunodeficiency virus 1, IIIB, MT4, 120 h, HIV-1 (IIIB) in MT-4 cells, 5 days incubation, Cell Titer Glo; read-out: MT4 EC50
// units = nM; emit number, no label

Query string: Record lookup: for HIV-1 (IIIB), what EC50 belongs to "COC1=NO[C@@]2(CCCN3C[C@H]2n2cc(C(=O)NCc4c(F)cc(F)cc4F)c(=O)c(O)c2C3=O)C1" ?
Result string: 1.1

Query string: Now give it for "CCn1c(CN2O[C@@]3(CC[C@H](C)N4C[C@H]3n3cc(C(=O)NCc5c(F)cc(F)cc5F)c(=O)c(O)c3C4=O)CC2=O)nc2ccccc21" too.
Result string: 3

Query string: Now give it for "COC1=NO[C@@]2(CC[C@H](C)N3C[C@H]2n2cc(C(=O)NCc4c(F)cc(F)cc4F)c(=O)c(O)c2C3=O)[C@@H]1F" too.
Result string: 1.2

Query string: Now give it for "COC1=NO[C@@]2(CC[C@H](C)N3C[C@H]2n2cc(C(=O)NCc4c(F)cc(F)cc4F)c(=O)c(O)c2C3=O)C1" too.
Result string: 0.7

Query string: Now give it for "CC1=NO[C@@]2(CC[C@H](C)N3C[C@H]2n2cc(C(=O)NCc4ccc(F)cc4F)c(=O)c(O)c2C3=O)O1" too.
Result string: 1.4

Query string: Now give it for "C[C@H]1CC[C@]2(CC(=O)N(Cc3ccc4c(cnn4C)c3)O2)[C@H]2CN1C(=O)c1c(O)c(=O)c(C(=O)NCc3c(F)cc(F)cc3F)cn12" too.
Result string: 1.5

Query string: Now give it for "CC1=NO[C@@]2(CC[C@H](C)N3C[C@H]2n2cc(C(=O)NCc4ccc(F)c(Cl)c4F)c(=O)c(O)c2C3=O)[C@H]1O" too.
Result string: 0.9

Query string: Now give it for "CC1=NO[C@]2(CC[C@H](C)N3C[C@H]2n2cc(C(=O)NCc4c(F)cc(F)cc4F)c(=O)c(O)c2C3=O)C1" too.
Result string: 5.7

Query string: Now give it for "C[C@H]1CC[C@]2(CC(CCF)=NO2)[C@H]2CN1C(=O)c1c(O)c(=O)c(C(=O)NCc3c(F)cc(F)cc3F)cn12" too.
Result string: 1.3

Query string: Now give it for "COC[C@H]1CO[C@]2(CC[C@H](C)N3C[C@H]2n2cc(C(=O)NCc4c(F)cc(F)cc4F)c(=O)c(O)c2C3=O)O1" too.
Result string: 1.7

Query string: Now give it for "COC1=NO[C@@]2(CC[C@H](CF)N3C[C@H]2n2cc(C(=O)NCc4ccc(F)cc4F)c(=O)c(O)c2C3=O)C1" too.
Result string: 1.5

Query string: Now give it for "C[C@H]1CC[C@]2(COC(F)(F)O2)[C@H]2CN1C(=O)c1c(O)c(=O)c(C(=O)NCc3c(F)cc(F)cc3F)cn12" too.
Result string: 0.9

###

- protocolDetails: in vitro
- conditionContext: human, uninfected MT-4 cells
compounds and their reported CC50 at 5 days
// units = µM; emit number, no label

# annotated cases, reported CC50 at 5 days shown
| compoundSmiles | CC50 at 5 days, µM |
| --- | --- |
| CC1=NO[C@@]2(CC[C@H](C)N3C[C@H]2n2cc(C(=O)NCc4ccc(F)cc4F)c(=O)c(O)c2C3=O)[C@H]1C | 13 |
| CC1=NO[C@@]2(CC[C@H](C)N3C[C@H]2n2cc(C(=O)NCc4c(F)cc(F)cc4F)c(=O)c(O)c2C3=O)[C@H]1F | 21.2 |

Now for the compound whose CC50 at 5 days we want.
Query string: Which measured CC50 at 5 days value corresponds to "COC1=NO[C@@]2(CC[C@H](C)N3C[C@H]2n2cc(C(=O)NCc4cc(F)c(F)cc4F)c(=O)c(O)c2C3=O)C1" ?
Result string: 26.3

// data source = patent US20250115620A1
